Test: basal RPMI8226 viability, no added stimulus, profiling panel, cell-based, calcein-AM fluorescence, 48 h, PK04 Diversity Set (AID 1166);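 note: cells grown under basal conditions without added stimulus; test concentration not given here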
Settings: RPMI8226 myeloma viability, higher = more signal
Define the label as true (1) when z-score is strictly less than -0.3 and as false (0) in all remaining cases.

Examples from the recorded data:
CC(C)NC(=O)[C@@]1(C)c2ccccc2C(=O)N(Cc2cc(C(F)(F)F)cc(C(F)(F)F)c2)[C@H]1c1ccc(CO)cc1: true (1)
COC(=O)[C@@]1(Cc2ccc(OC)cc2)[C@H]2c3cc(C(=O)N(C)C)n(Cc4ccccn4)c3C[C@H]2CN1C(=O)c1ccccc1: true (1)
COC(=O)[C@@]1(Cc2ccc(F)cc2)[C@H]2c3cc(C(=O)N4CCCC4)n(Cc4ccc(S(C)(=O)=O)cc4)c3C[C@H]2CN1C(=O)c1ccccc1: true (1)
C=CCOC(=O)[C@@H]1[C@H]2C(=O)O[C@H](c3ccccc3)[C@H](c3ccccc3)N2[C@H](c2ccc(OCCOC(=O)[C@@H]3C[C@@H]4C(=O)NCC(=O)N4[C@@H]3c3ccc(O)cc3)cc2)[C@@]12C(=O)Nc1ccc(I)cc12: true (1)
COC(=O)[C@H](Cc1ccccc1)N[C@@H](/C=C/C1CC1)[C@H](O)Cc1ccccc1: true (1)
CC(C)(C)OC(=O)CC[C@]1(C(=O)N2CCOCC2)N=C(c2ccc(OCCCO)cc2)O[C@H]1c1ccccc1N=[N+]=[N-]: true (1)

Determine if "O=C(c1ccccc1)N1C(=O)[C@]2(COC(c3ccc(OCCCO)cc3)=N2)Cc2ccccc21" shows z-score strictly lower than -0.3.
true (1)

z-score strictly < -0.3 for this compound? CC1(C)[C@@H]2CC(C(O)C3C=CC4C(=O)N(Cc5ccccc5)C(=O)C4N3n3cnnc3)=C[C@H]1C2 (some centres not stated)
false (0)

Field: below-cutoff. Rule: recorded z-score strictly less than -0.3. Subject: "COc1ccc([Si](C)(C)[C@H]2[C@H](CCO)O[C@@]3(C(=O)N(Cc4ccc(N(C=O)c5ccccc5)cc4)c4ccccc43)[C@@H]2C)cc1"
true (1)

Input "COC(=O)[C@@]1(Cc2ccc(OC)cc2)[C@H]2c3cc(C(=O)N(C)C)n(Cc4ccc(S(C)(=O)=O)cc4)c3C[C@H]2CN1C(=O)c1ccccc1" ; condition: z-score strictly below -0.3. Does it hold?
false (0)

Decide: z-score of C=CCC(OC(C)=O)[C@@H]1[C@@H](N(Cc2cccc3ccccc23)C(=O)c2ccc(-c3ccccc3)cc2)c2cc(OCCCO)ccc2N1C(=O)c1ccc2ccccc2c1 (some centres not stated) strictly below -0.3?
true (1)

Hello, I'm reviewing records and need to know if z-score of "C=C(C(=O)CC[C@@H](OC(=O)c1cccnc1)c1ccccc1OCCO)C(C)C" is below -0.3. Could you check?
true (1)

---

Molecular target: Homeobox protein Hox-A13 (Mus musculus) (UniProt Q62424)
Sequence (Q62424 whole entry, looked up): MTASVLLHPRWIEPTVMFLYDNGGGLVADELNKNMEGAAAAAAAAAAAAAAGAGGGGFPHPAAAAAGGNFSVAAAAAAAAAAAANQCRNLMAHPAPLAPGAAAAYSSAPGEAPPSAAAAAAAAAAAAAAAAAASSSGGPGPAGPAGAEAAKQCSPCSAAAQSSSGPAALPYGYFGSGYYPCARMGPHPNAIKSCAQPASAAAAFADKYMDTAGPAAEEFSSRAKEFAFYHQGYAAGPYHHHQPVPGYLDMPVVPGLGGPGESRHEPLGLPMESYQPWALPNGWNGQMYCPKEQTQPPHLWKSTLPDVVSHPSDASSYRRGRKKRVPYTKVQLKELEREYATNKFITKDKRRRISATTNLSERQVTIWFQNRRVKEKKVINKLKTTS
Assay: inhibitors of HoxA13-DNA binding, primary screen, biochemical, fluorescence polarization, labeled oligonucleotide (AID 1185)
Conditions: 15 min, higher = more signal, called active from +8 up or from −8 down
Calls of active or inactive are those of the source.
metric-name: z-score

CC1(C)[C@@H]2CC(C(O)C3C=CC4C(=O)N(c5ccccc5)C(=O)C4N3Nc3ccc([N+](=O)[O-])cc3)=C[C@H]1C2 (stereo partly drawn): -2.94 (inactive)

Let me check: O=C1C2C=CC(C(O)c3cc(C(F)(F)F)cc(C(F)(F)F)c3)N(n3cnnc3)C2C(=O)N1Cc1ccccc1 (stereo not drawn) , system Homeobox protein Hox-A13 (Mus musculus) (UniProt Q62424), measured z-score is -2.95 (inactive)

Tested on Homeobox protein Hox-A13 (Mus musculus) (UniProt Q62424): "O=C1N[C@@H](Cc2ccccc2)C(=O)N2[C@@H]1C[C@@H](C(=O)O)[C@H]2c1cccc(OCCO)c1" . Observed z-score: -3.04 (inactive)
